All values here come from patent US20230135894A1.

Measured DC50 of individual entries
# ASSAY_TARGET: MK2 (Homo sapiens, UniProt P49137)
# Sequence (P49137 whole entry): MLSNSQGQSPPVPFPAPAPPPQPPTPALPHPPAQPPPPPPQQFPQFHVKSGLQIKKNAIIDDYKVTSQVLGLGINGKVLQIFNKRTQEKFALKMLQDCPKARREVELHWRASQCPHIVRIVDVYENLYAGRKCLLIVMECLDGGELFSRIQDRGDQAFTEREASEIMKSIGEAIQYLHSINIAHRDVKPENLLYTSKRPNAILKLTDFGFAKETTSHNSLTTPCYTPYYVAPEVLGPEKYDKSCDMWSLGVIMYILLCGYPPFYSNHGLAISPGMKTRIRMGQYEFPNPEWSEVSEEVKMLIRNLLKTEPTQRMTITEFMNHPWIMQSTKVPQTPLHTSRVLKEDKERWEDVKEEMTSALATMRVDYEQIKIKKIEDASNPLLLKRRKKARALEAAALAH
# TEST_NAME: MK2 degradation in human THP-1 monocytic cells (MSD, 24 h)
# Assay type: cell-based
# Parameters: endogenous in cells
# CONDITION_DESCRIPTION: THP-1 cells, read-out: MK2 MSD THP-1 degradation 24 h GMean External Abs DC50

# input Data request, read-out DC50, for C[C@@H]1CNc2c(sc3ccc4nc(-c5ccc(C#CCCNC(=O)CCCCCCCCCc6cccc7c6n(C)c(=O)n7C6CCC(=O)NC6=O)cc5)ccc4c23)C(=O)N1 (some centres unmarked) [Compound I-54]
# output 10 to 100 nM

# input Data request, read-out DC50, for C[C@@H]1CNc2c(sc3ccc4nc(-c5cccc(N6CCN(CCCc7ccc8c(c7)n(C)c(=O)n8C7CCC(=O)NC7=O)CC6)c5)ccc4c23)C(=O)N1 (some centres unmarked) [Compound I-118]
# output < 1 nM

# input Data request, read-out DC50, for Cn1c(=O)n(C2CCC(=O)NC2=O)c2ccc(N3CC(CN4CCN(c5ccc(-c6cc(-c7cc8c([nH]7)C7(CCCC7)CNC8=O)ccn6)c(F)c5)CC4)C3)cc21 (centres unmarked) [Compound I-422]
# output < 1 nM

# input Data request, read-out DC50, for C[C@@H]1Cc2[nH]c(-c3ccnc(-c4ccc(N5CCC(CN6CCC(c7ccc8c(c7)n(C)c(=O)n8C7CCC(=O)NC7=O)CC6)CC5)cc4)c3)cc2C(=O)N1 (some centres unmarked) [Compound I-263]
# output < 1 nM

# input Data request, read-out DC50, for Cc1cc(N2CCC(CN3CCC(c4ccc5c(c4)n(C)c(=O)n5C4CCC(=O)NC4=O)CC3)CC2)ccc1-c1ccc2c(ccc3sc4c(c32)NC[C@@H](C)NC4=O)n1 (some centres unmarked) [Compound I-291]
# output < 1 nM

====

# ASSAY_TARGET: MK2 (Homo sapiens)
# TEST_NAME: MK2 degradation in human SW1353 cells (MSD, 24 h)
# Format: cell-based
# Design: endogenous in cells; host or cells: SW-1353 (ATCC HTB-94)
# CONDITION_DESCRIPTION: read-out: MK2 MSD SW1353 degradation 24 h GMean External Abs DC50
Measured DC50 of individual entries

# input Missing value: DC50, MK2 (Homo sapiens), entry C[C@@H]1CNc2c(sc3ccc4nc(-c5cncc(N6CCN(CCCCCc7cccc8c7n(C)c(=O)n8C7CCC(=O)NC7=O)CC6)c5)ccc4c23)C(=O)N1 (stereo partly drawn) [Compound I-156] . Fill in?
# output < 1 nM

# input Missing value: DC50, MK2 (Homo sapiens), entry C[C@@H]1CNc2c(sc3ccc4nc(N5CCCN(CC6CCN(c7cccc8c7n(C)c(=O)n8C7CCC(=O)NC7=O)CC6)CC5)ccc4c23)C(=O)N1 (stereo partly drawn) [Compound I-442] . Fill in?
# output > 100 nM

# input Missing value: DC50, MK2 (Homo sapiens), entry C[C@@H]1CNc2c(sc3ccc4nc(-c5cnc(N6CCN(CC7CCN(c8ccc9c(c8)n(C)c(=O)n9C8CCC(=O)NC8=O)CC7)CC6)nc5)ccc4c23)C(=O)N1 (stereo partly drawn) [Compound I-282] . Fill in?
# output < 1 nM
